Tested on: human lung cancer cell H460
Assay: Cytotoxicity test of conjugate LDC10BR
Assay type: cell-based
Conditions: H460, incubated 15-30 min, then 2-3 days
Square brackets hold non-standard residues; d marks the D form. Peptide text beside a SMILES is read from it. * marks the point of attachment. Dolaproine = CO[C@@H]([C@@H]1CCCN1)[C@@H](C)C(=O)O; Dil = CC[C@H](C)[C@H](NC)[C@@H](CC(=O)O)OC; X1 = C[C@@H](N*)[C@@H](O)c1ccccc1; NMeV = CN[C@H](C(=O)O)C(C)C
Result Type: IC50 (nM)
Express your answer in nM, writing the number without its unit.

Record CC[C@H](C)[C@@H]([C@@H](CC(=O)N1CCC[C@H]1[C@H](OC)[C@@H](C)C(=O)N[C@H](C)[C@@H](O)c1ccccc1)OC)N(C)C(=O)[C@@H](NC(=O)[C@@H](NC)C(C)C)C(C)C [MMAE] (H-[NMeV]V[Dil][Dolaproine]-X1) . Reported IC50: 37

###

Tested on: human nasopharyngeal cancer cell line KB
Assay: Cytotoxicity test of conjugate LDC13B
Assay type: cell-based
Conditions: KB, incubated 15-30 min, then 2-3 days
Square brackets hold non-standard residues; d marks the D form. Peptide text beside a SMILES is read from it. * marks the point of attachment. Dolaproine = CO[C@@H]([C@@H]1CCCN1)[C@@H](C)C(=O)O; Dil = CC[C@H](C)[C@H](NC)[C@@H](CC(=O)O)OC; X1 = C[C@@H](N*)[C@@H](O)c1ccccc1; NMeV = CN[C@H](C(=O)O)C(C)C
Result Type: IC50 (nM)
Express your answer in nM, writing the number without its unit.

Entry CC[C@H](C)[C@@H]([C@@H](CC(=O)N1CCC[C@H]1[C@H](OC)[C@@H](C)C(=O)N[C@H](C)[C@@H](O)c1ccccc1)OC)N(C)C(=O)[C@@H](NC(=O)[C@@H](NC)C(C)C)C(C)C [MMAE] (H-[NMeV]V[Dil][Dolaproine]-X1) under human nasopharyngeal cancer cell line KB had IC50 of 28.8

###

Tested on: ovarian cancer cell SKOV3
Assay: Cytotoxicity test of conjugate LDC10B
Format: cell-based, human
Conditions: SKOV3, Incubation Time 30 min
Square brackets hold non-standard residues; d marks the D form. Peptide text beside a SMILES is read from it. * marks the point of attachment. Dolaproine = CO[C@@H]([C@@H]1CCCN1)[C@@H](C)C(=O)O; Dil = CC[C@H](C)[C@H](NC)[C@@H](CC(=O)O)OC; X1 = C[C@@H](N*)[C@@H](O)c1ccccc1; NMeV = CN[C@H](C(=O)O)C(C)C
Result Type: IC50 (nM)
Express your answer in nM, writing the number without its unit.

Record CC[C@H](C)[C@@H]([C@@H](CC(=O)N1CCC[C@H]1[C@H](OC)[C@@H](C)C(=O)N[C@H](C)[C@@H](O)c1ccccc1)OC)N(C)C(=O)[C@@H](NC(=O)[C@@H](NC)C(C)C)C(C)C [MMAE] (H-[NMeV]V[Dil][Dolaproine]-X1) . Reported IC50: 0.62

###

Tested on: human lung cancer cell H460
Assay: Cytotoxicity test of conjugate LDC10H
Assay type: cell-based
Conditions: H460, incubated 15-30 min, then 2-3 days
Protocol: Culture medium: RPMI 1640 Medium, no folic acid 1) human lung cancer cell H1299, ovarian cancer cell SKOV3, breast cancer cell line HCC1954, and human lung cancer cell H460 were incubated at 37° C., 5% CO2 in RPMI 1640 medium containing 10% fetal bovine serum, the cells were passaged every 2-3 days. […] 5) the plate was read at 490 nm on a microplate reader, and the cell survivals were compared for cells with or without the treatment of LDC conjugates. […]
Square brackets hold non-standard residues; d marks the D form. Peptide text beside a SMILES is read from it. * marks the point of attachment. Dolaproine = CO[C@@H]([C@@H]1CCCN1)[C@@H](C)C(=O)O; Dil = CC[C@H](C)[C@H](NC)[C@@H](CC(=O)O)OC; X1 = C[C@@H](N*)[C@@H](O)c1ccccc1; NMeV = CN[C@H](C(=O)O)C(C)C
Result Type: IC50 (nM)
Express your answer in nM, writing the number without its unit.

Record CC[C@H](C)[C@@H]([C@@H](CC(=O)N1CCC[C@H]1[C@H](OC)[C@@H](C)C(=O)N[C@H](C)[C@@H](O)c1ccccc1)OC)N(C)C(=O)[C@@H](NC(=O)[C@@H](NC)C(C)C)C(C)C [MMAE] (H-[NMeV]V[Dil][Dolaproine]-X1) . Reported IC50: 0.56

###

Test system: human gastric cancer cell line GTL-16
Assay: Cytotoxicity test of conjugate LDC12B
Type: cell-based
Details: GTL-16, incubated 15-30 min, then 2-3 days
Square brackets hold non-standard residues; d marks the D form. Peptide text beside a SMILES is read from it. * marks the point of attachment. Dolaproine = CO[C@@H]([C@@H]1CCCN1)[C@@H](C)C(=O)O; Dil = CC[C@H](C)[C@H](NC)[C@@H](CC(=O)O)OC; X1 = C[C@@H](N*)[C@@H](O)c1ccccc1; NMeV = CN[C@H](C(=O)O)C(C)C
Result Type: IC50 (nM)
Express your answer in nM, writing the number without its unit.

Record CC[C@H](C)[C@@H]([C@@H](CC(=O)N1CCC[C@H]1[C@H](OC)[C@@H](C)C(=O)N[C@H](C)[C@@H](O)c1ccccc1)OC)N(C)C(=O)[C@@H](NC(=O)[C@@H](NC)C(C)C)C(C)C [MMAE] (H-[NMeV]V[Dil][Dolaproine]-X1) . Reported IC50: 6.38

###

Test system: human nasopharyngeal cancer cell line KB
Experiment: Cytotoxicity test of conjugate LDC10BR
Format: cell-based
Conditions: incubated 15-30 min, then 2-3 days
Square brackets hold non-standard residues; d marks the D form. Peptide text beside a SMILES is read from it. * marks the point of attachment. Dolaproine = CO[C@@H]([C@@H]1CCCN1)[C@@H](C)C(=O)O; Dil = CC[C@H](C)[C@H](NC)[C@@H](CC(=O)O)OC; X1 = C[C@@H](N*)[C@@H](O)c1ccccc1; NMeV = CN[C@H](C(=O)O)C(C)C
Result Type: pIC50
Keep in mind that pIC50 stands for -log10 of concentration in molar terms.

Record CC[C@H](C)[C@@H]([C@@H](CC(=O)N1CCC[C@H]1[C@H](OC)[C@@H](C)C(=O)N[C@H](C)[C@@H](O)c1ccccc1)OC)N(C)C(=O)[C@@H](NC(=O)[C@@H](NC)C(C)C)C(C)C [MMAE] (H-[NMeV]V[Dil][Dolaproine]-X1) . Reported pIC50: 7.70

###

System: human prostatic cancer cell PC-3
Test: Cytotoxicity test of conjugate LDC13B
Type: cell-based
Conditions: PC-3, incubated 15-30 min, then 2-3 days
Square brackets hold non-standard residues; d marks the D form. Peptide text beside a SMILES is read from it. * marks the point of attachment. Dolaproine = CO[C@@H]([C@@H]1CCCN1)[C@@H](C)C(=O)O; Dil = CC[C@H](C)[C@H](NC)[C@@H](CC(=O)O)OC; X1 = C[C@@H](N*)[C@@H](O)c1ccccc1; NMeV = CN[C@H](C(=O)O)C(C)C
Result Type: IC50 (nM)
Express your answer in nM, writing the number without its unit.

Record CC[C@H](C)[C@@H]([C@@H](CC(=O)N1CCC[C@H]1[C@H](OC)[C@@H](C)C(=O)N[C@H](C)[C@@H](O)c1ccccc1)OC)N(C)C(=O)[C@@H](NC(=O)[C@@H](NC)C(C)C)C(C)C [MMAE] (H-[NMeV]V[Dil][Dolaproine]-X1) . Reported IC50: 12.8

###

Test system: human nasopharyngeal cancer cell line KB
Assay: Cytotoxicity test of conjugate LDC10B
Format: cell-based
Settings: Incubation Time 15 min
Square brackets hold non-standard residues; d marks the D form. Peptide text beside a SMILES is read from it. * marks the point of attachment. Dolaproine = CO[C@@H]([C@@H]1CCCN1)[C@@H](C)C(=O)O; Dil = CC[C@H](C)[C@H](NC)[C@@H](CC(=O)O)OC; X1 = C[C@@H](N*)[C@@H](O)c1ccccc1; NMeV = CN[C@H](C(=O)O)C(C)C
Result Type: IC50 (nM)
Express your answer in nM, writing the number without its unit.

Record CC[C@H](C)[C@@H]([C@@H](CC(=O)N1CCC[C@H]1[C@H](OC)[C@@H](C)C(=O)N[C@H](C)[C@@H](O)c1ccccc1)OC)N(C)C(=O)[C@@H](NC(=O)[C@@H](NC)C(C)C)C(C)C [MMAE] (H-[NMeV]V[Dil][Dolaproine]-X1) . Reported IC50: 89

###

System: melanoma cell line A375
Assay: Cytotoxicity test of conjugate LDC10B
Type: cell-based
Conditions: A375, Incubation Time 15 min
Square brackets hold non-standard residues; d marks the D form. Peptide text beside a SMILES is read from it. * marks the point of attachment. Dolaproine = CO[C@@H]([C@@H]1CCCN1)[C@@H](C)C(=O)O; Dil = CC[C@H](C)[C@H](NC)[C@@H](CC(=O)O)OC; X1 = C[C@@H](N*)[C@@H](O)c1ccccc1; NMeV = CN[C@H](C(=O)O)C(C)C
Result Type: pIC50
Keep in mind that pIC50 stands for -log10 of concentration in molar terms.

Record CC[C@H](C)[C@@H]([C@@H](CC(=O)N1CCC[C@H]1[C@H](OC)[C@@H](C)C(=O)N[C@H](C)[C@@H](O)c1ccccc1)OC)N(C)C(=O)[C@@H](NC(=O)[C@@H](NC)C(C)C)C(C)C [MMAE] (H-[NMeV]V[Dil][Dolaproine]-X1) . Reported pIC50: 7.00
